Numbers sourced from patent US20210054097A1.

target-or-system: T1, FX activation peptide 12-mer SVAQATSSSGEA (human)
T1 peptide: SVAQATSSSGEA-biotin
assay-explanation: peptide ELISA
Ends that are not written are not given here.
measurement-name: ELISA signal relative to background

{"binder": "Nb 702C12 (VHH, monovalent Nanobody; not shown: C-terminal FLAG3 and HIS6 tag) VHH: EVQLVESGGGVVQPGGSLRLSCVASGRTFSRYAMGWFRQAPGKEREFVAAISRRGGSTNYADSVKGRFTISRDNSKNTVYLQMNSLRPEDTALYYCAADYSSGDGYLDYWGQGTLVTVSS", "ELISA signal relative to background": 0.96}
{"binder": "Nb 730C03 (VHH, monovalent Nanobody; also called Nb 730003; not shown: C-terminal FLAG3 and HIS6 tag) VHH: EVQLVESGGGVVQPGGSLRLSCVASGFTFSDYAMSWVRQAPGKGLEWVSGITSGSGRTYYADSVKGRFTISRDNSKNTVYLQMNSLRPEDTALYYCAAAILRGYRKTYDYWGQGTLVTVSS", "ELISA signal relative to background": 1.21}
{"binder": "Nb 729A04 (VHH, monovalent Nanobody; not shown: C-terminal FLAG3 and HIS6 tag) VHH: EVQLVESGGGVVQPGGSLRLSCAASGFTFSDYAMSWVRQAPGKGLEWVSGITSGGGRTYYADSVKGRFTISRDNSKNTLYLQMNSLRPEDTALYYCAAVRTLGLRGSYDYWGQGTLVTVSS", "ELISA signal relative to background": 0.92}

Pending binder:
Please report the recorded ELISA signal relative to background for Nb 729C08 (VHH, monovalent Nanobody; also called Nb 729008; not shown: C-terminal FLAG3 and HIS6 tag) VHH: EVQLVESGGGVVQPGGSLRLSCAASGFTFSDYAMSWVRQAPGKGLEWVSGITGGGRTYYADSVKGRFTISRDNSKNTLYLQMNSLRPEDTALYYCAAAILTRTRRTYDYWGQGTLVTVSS .
1.14
